TARGET_UNDER_TEST: human DDAH1 (Homo sapiens, UniProt O94760)
Sequence (O94760 whole entry): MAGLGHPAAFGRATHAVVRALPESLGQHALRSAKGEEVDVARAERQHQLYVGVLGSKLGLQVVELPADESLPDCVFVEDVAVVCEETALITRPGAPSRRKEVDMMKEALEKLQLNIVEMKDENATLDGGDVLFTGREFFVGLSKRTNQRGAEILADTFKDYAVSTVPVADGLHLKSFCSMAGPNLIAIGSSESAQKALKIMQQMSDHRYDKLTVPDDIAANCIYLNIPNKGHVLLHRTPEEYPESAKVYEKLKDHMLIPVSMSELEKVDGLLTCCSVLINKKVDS
MEASUREMENT_DESCRIPTION: Secondary fluorimetric CPM assay with SMTC as substrate
Format: biochemical
EXPERIMENTAL_CONTEXT: inhibition of human DDAH1, CPM assay, 30 nM DDAH, 100 μM SMTC

COMPOUND: CN=c1nc(-c2ccccc2)n(-c2ccccc2)s1 [SCH-202676]
TARGET_UNDER_TEST: human DDAH1 (Homo sapiens, UniProt O94760)
IC50: 13.3 µM

COMPOUND: CC(=O)[O][Hg][c]1ccccc1 [phenylmercuric acetate]
TARGET_UNDER_TEST: human DDAH1 (Homo sapiens, UniProt O94760)
IC50: < 0.78 µM

###

TARGET_UNDER_TEST: UniProt:O94760
MEASUREMENT_DESCRIPTION: Colorimetric L-citrulline assay with ADMA as substrate
Assay type: biochemical
EXPERIMENTAL_CONTEXT: screening with recombinant human DDAH1; assay format not given
pIC50: −log10 of the molar value.
VALUE_TYPE: pIC50

MOLECULE: CC(=O)[O][Hg][c]1ccccc1 [phenylmercuric acetate]
TARGET_UNDER_TEST: UniProt:O94760
VALUE_TYPE: pIC50
RESULT_MODIFIER: >
RECORDED_MEASUREMENT: 6.11
--
MOLECULE: C[CH2][Hg][S]c1ccccc1C(=O)[O-].[Na+]
TARGET_UNDER_TEST: UniProt:O94760
VALUE_TYPE: pIC50
RESULT_MODIFIER: =
RECORDED_MEASUREMENT: 6.34

###

TARGET_UNDER_TEST: human DDAH1 (Homo sapiens, UniProt O94760)
MEASUREMENT_DESCRIPTION: Colorimetric L-citrulline assay with ADMA as substrate
Assay type: biochemical

ITEM_SMILES: O=c1c2ccccc2[se]n1-c1ccccc1
IC50 [µM]: 3.9
